molecular target: recombinant NRP2 isoform a (human) (UniProt O60462); experiment: BLI (Octet RED96e)
endpointName: koff (s⁻¹)

>>> measuredvalue("aNRP2-401v8 (antibody, V domains shown) VH: EVQLVESGGGLVQPGGSLRLSCAASGFTFSDYGMHWVRQAPGKGLEWVSTISRDIQTVYYADTVKGRFTISRDNAKNSLYLQMNSLRAEDTAVYYCARGGYTDYWGQGTTVTVSS VL: DIVMTQTPLSLSVTPGQPASISCRSSQSLVHSNGNTYLYWYLQKPGQSPQLLIYKVSNRFSGVPDRFSGSGSGTDFTLKISRVEAEDVGVYYCAQSTHPLTFGGGTKVEIK")
0.00012
